# Test system: LU99A
# Protocol Details: relative viability (nuclei count vs DMSO), 5 days (fraction); higher = more cells survive
# Condition Summary: first compound 0.01581 µM
Measure: relative viability

Worked examples, 2 compounds total:
Compound	Result
CC1(C)CCC(c2ccc(Cl)cc2)=C(CN2CCN(c3ccc(C(=O)NS(=O)(=O)c4ccc(N[C@H](CCN5CCOCC5)CSc5ccccc5)c(S(=O)(=O)C(F)(F)F)c4)cc3)CC2)C1 [Navitoclax] + O=C(c1cc(Cc2n[nH]c(=O)c3ccccc23)ccc1F)N1CCN(C(=O)C2CC2)CC1 [Olaparib] (partner 8 µM)	0.275
CC1(C)CCC(c2ccc(Cl)cc2)=C(CN2CCN(c3ccc(C(=O)NS(=O)(=O)c4ccc(N[C@H](CCN5CCOCC5)CSc5ccccc5)c(S(=O)(=O)C(F)(F)F)c4)cc3)CC2)C1 [Navitoclax] + Cc1nc(Nc2ncc(C(=O)Nc3c(C)cccc3Cl)s2)cc(N2CCN(CCO)CC2)n1 [Dasatinib] (partner 0.075 µM)	0.879

Now, please, on to the next compound.
Query :: // map CC1(C)CCC(c2ccc(Cl)cc2)=C(CN2CCN(c3ccc(C(=O)NS(=O)(=O)c4ccc(N[C@H](CCN5CCOCC5)CSc5ccccc5)c(S(=O)(=O)C(F)(F)F)c4)cc3)CC2)C1 [Navitoclax] + COc1cc2c(Oc3ccc(NC(=O)C4(C(=O)Nc5ccc(F)cc5)CC4)cc3F)ccnc2cc1OCCCN1CCOCC1 [Foretinib] (partner 0.25 µM) to recorded relative viability (system: LU99A)
Result :: 0.886

----------
Measured relative viability values are reported for all entries that follow.
# Tested on: NCI-H1734
# Protocol Details: relative viability (nuclei count vs DMSO), 5 days (fraction); higher = more cells survive
# Condition Summary: first compound 0.4 µM
Answer field: number only, no words.

Worked examples, 3 molecules total:
Molecule	Quantitative Readout
O=C(O)c1ccc(-c2c[nH]c3ncc(-c4ccccc4)cc23)cc1C1CCCC1 + N=C(N)NC(=N)NCCc1ccccc1 [Phenformin] (partner 250 µM)	0.371
O=C(O)c1ccc(-c2c[nH]c3ncc(-c4ccccc4)cc23)cc1C1CCCC1 + C[C@]1(O)C[C@@H](c2nc(-c3ccc4ccc(-c5ccccc5)nc4c3)c3c(N)nccn32)C1 [Linsitinib] (partner 1 µM)	0.816
O=C(O)c1ccc(-c2c[nH]c3ncc(-c4ccccc4)cc23)cc1C1CCCC1 + O=C(CCCCCCC(=O)Nc1ccccc1)NO [Vorinostat] (partner 1 µM)	0.876

Query :: # query: relative viability of entry O=C(O)c1ccc(-c2c[nH]c3ncc(-c4ccccc4)cc23)cc1C1CCCC1 + COc1cccc2cc(-c3nc([C@H]4CC[C@H](C(=O)O)CC4)n4ncnc(N)c34)[nH]c12 [OSI-027] (partner 0.5 µM)
Result :: 0.549

Query :: # query: relative viability of entry O=C(O)c1ccc(-c2c[nH]c3ncc(-c4ccccc4)cc23)cc1C1CCCC1 + CCNC(=O)c1noc(-c2cc(C(C)C)c(O)cc2O)c1-c1ccc(CN2CCOCC2)cc1 [Luminespib] (partner 0.01 µM)
Result :: 0.224

Query :: # query: relative viability of entry O=C(O)c1ccc(-c2c[nH]c3ncc(-c4ccccc4)cc23)cc1C1CCCC1 + COc1cc2c(Oc3ccc(NC(=O)C4(C(=O)Nc5ccc(F)cc5)CC4)cc3F)ccnc2cc1OCCCN1CCOCC1 [Foretinib] (partner 0.25 µM)
Result :: 0.731

Query :: # query: relative viability of entry O=C(O)c1ccc(-c2c[nH]c3ncc(-c4ccccc4)cc23)cc1C1CCCC1 + C[C@@H](Oc1cc(-c2cnn(C3CCNCC3)c2)cnc1N)c1c(Cl)ccc(F)c1Cl [Crizotinib] (partner 1 µM)
Result :: 0.601

Query :: # query: relative viability of entry O=C(O)c1ccc(-c2c[nH]c3ncc(-c4ccccc4)cc23)cc1C1CCCC1 + Cc1nc(Nc2ncc(C(=O)Nc3c(C)cccc3Cl)s2)cc(N2CCN(CCO)CC2)n1 [Dasatinib] (partner 0.075 µM)
Result :: 0.468

----------
# System: NCI-H522
# Protocol Details: relative viability (nuclei count vs DMSO), 5 days (fraction); higher = more cells survive
# Condition Summary: first compound 0.253 µM
Measured relative viability values are reported for all entries that follow.

Worked examples, 2 molecules total:
Molecule	Result
C=C1C(=O)O[C@@H](CCCCCCCC)[C@@H]1C(=O)O [C-75] + O=C(c1cc(Cc2n[nH]c(=O)c3ccccc23)ccc1F)N1CCN(C(=O)C2CC2)CC1 [Olaparib] (partner 8 µM)	0.733
C=C1C(=O)O[C@@H](CCCCCCCC)[C@@H]1C(=O)O [C-75] + Cc1cc(Nc2cc(N3CCN(C)CC3)nc(Sc3ccc(NC(=O)C4CC4)cc3)n2)n[nH]1 [Tozasertib] (partner 0.1 µM)	0.598

Query :: # query: relative viability of entry C=C1C(=O)O[C@@H](CCCCCCCC)[C@@H]1C(=O)O [C-75] + Cc1nc(Nc2ncc(C(=O)Nc3c(C)cccc3Cl)s2)cc(N2CCN(CCO)CC2)n1 [Dasatinib] (partner 0.075 µM)
Result :: 0.849

Query :: # query: relative viability of entry Oc1nc(-c2ccc(C(F)(F)F)cc2)nc2c1CSCC2 [XAV939] + Nc1nc2[nH]cc(CCc3ccc(C(=O)N[C@@H](CCC(=O)O)C(=O)O)cc3)c2c(=O)[nH]1 [Pemetrexed] (partner 0.2 µM)
Result :: 0.88

Query :: # query: relative viability of entry Oc1nc(-c2ccc(C(F)(F)F)cc2)nc2c1CSCC2 [XAV939] + CCNC(=O)c1noc(-c2cc(C(C)C)c(O)cc2O)c1-c1ccc(CN2CCOCC2)cc1 [Luminespib] (partner 0.01 µM)
Result :: 1.24

Query :: # query: relative viability of entry Oc1nc(-c2ccc(C(F)(F)F)cc2)nc2c1CSCC2 [XAV939] + Cc1cc(Nc2cc(N3CCN(C)CC3)nc(Sc3ccc(NC(=O)C4CC4)cc3)n2)n[nH]1 [Tozasertib] (partner 0.1 µM)
Result :: 0.529

----------
Measured relative viability values are reported for all entries that follow.
# Tested on: NCI-H1944
# Protocol Details: relative viability (nuclei count vs DMSO), 5 days (fraction); higher = more cells survive
# Condition Summary: first compound 0.1581 µM
Answer field: number only, no words.

Worked examples, 3 compounds total:
Compound	System Name	Measure	Quantitative Readout
CC1(C)CCC(c2ccc(Cl)cc2)=C(CN2CCN(c3ccc(C(=O)NS(=O)(=O)c4ccc(N[C@H](CCN5CCOCC5)CSc5ccccc5)c(S(=O)(=O)C(F)(F)F)c4)cc3)CC2)C1 [Navitoclax] + Cc1nc(NC(=O)N2CCC[C@H]2C(N)=O)sc1-c1ccnc(C(C)(C)C(F)(F)F)c1 [Alpelisib] (partner 2 µM)	NCI-H1944	relative viability	0.836
CC1(C)CCC(c2ccc(Cl)cc2)=C(CN2CCN(c3ccc(C(=O)NS(=O)(=O)c4ccc(N[C@H](CCN5CCOCC5)CSc5ccccc5)c(S(=O)(=O)C(F)(F)F)c4)cc3)CC2)C1 [Navitoclax] + O=C(c1cc(Cc2n[nH]c(=O)c3ccccc23)ccc1F)N1CCN(C(=O)C2CC2)CC1 [Olaparib] (partner 8 µM)	NCI-H1944	relative viability	0.412
CC1(C)CCC(c2ccc(Cl)cc2)=C(CN2CCN(c3ccc(C(=O)NS(=O)(=O)c4ccc(N[C@H](CCN5CCOCC5)CSc5ccccc5)c(S(=O)(=O)C(F)(F)F)c4)cc3)CC2)C1 [Navitoclax] + Nc1nc2[nH]cc(CCc3ccc(C(=O)N[C@@H](CCC(=O)O)C(=O)O)cc3)c2c(=O)[nH]1 [Pemetrexed] (partner 0.2 µM)	NCI-H1944	relative viability	0.597

Query :: # query: relative viability of entry CC1(C)CCC(c2ccc(Cl)cc2)=C(CN2CCN(c3ccc(C(=O)NS(=O)(=O)c4ccc(N[C@H](CCN5CCOCC5)CSc5ccccc5)c(S(=O)(=O)C(F)(F)F)c4)cc3)CC2)C1 [Navitoclax] + CS(=O)(=O)N1CCN(Cc2cc3nc(-c4cccc5[nH]ncc45)nc(N4CCOCC4)c3s2)CC1 [Pictilisib] (partner 1 µM)
Result :: 0.357

----------
Measured relative viability values are reported for all entries that follow.
# Test system: NCI-H2023
# Protocol Details: relative viability (nuclei count vs DMSO), 5 days (fraction); higher = more cells survive
# Condition Summary: first compound 0.5 µM
Answer field: number only, no words.

Worked examples, 2 compounds total:
Compound	relative viability
CC1(C)CCC(c2ccc(Cl)cc2)=C(CN2CCN(c3ccc(C(=O)NS(=O)(=O)c4ccc(N[C@H](CCN5CCOCC5)CSc5ccccc5)c(S(=O)(=O)C(F)(F)F)c4)cc3)CC2)C1 [Navitoclax] + Nc1ncn([C@H]2C[C@H](O)[C@@H](CO)O2)c(=O)n1 [Decitabine] (partner 2 µM)	0.229
CC1(C)CCC(c2ccc(Cl)cc2)=C(CN2CCN(c3ccc(C(=O)NS(=O)(=O)c4ccc(N[C@H](CCN5CCOCC5)CSc5ccccc5)c(S(=O)(=O)C(F)(F)F)c4)cc3)CC2)C1 [Navitoclax] + CC(=O)Nc1cccc(-n2c(=O)n(C3CC3)c(=O)c3c(Nc4ccc(I)cc4F)n(C)c(=O)c(C)c32)c1 [Trametinib] (partner 0.02 µM)	0.547

Query :: # query: relative viability of entry CC1(C)CCC(c2ccc(Cl)cc2)=C(CN2CCN(c3ccc(C(=O)NS(=O)(=O)c4ccc(N[C@H](CCN5CCOCC5)CSc5ccccc5)c(S(=O)(=O)C(F)(F)F)c4)cc3)CC2)C1 [Navitoclax] + CS(=O)(=O)N1CCN(Cc2cc3nc(-c4cccc5[nH]ncc45)nc(N4CCOCC4)c3s2)CC1 [Pictilisib] (partner 1 µM)
Result :: 0.269

This collection of values is drawn from the supplement of paper PMC10307832.
